assayName: small-molecule microarray binders of probe aEGFR, primary screen, biochemical, biotinylated probe, 635/667 nm fluorescence (AID 1097);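 further: probe is a biotinylated anti-EGFR antibody binding compounds printed on slides; score combines fluorescence near 667 nm and signal to noise of each spot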
testContext: higher = more signal
measurementName: composite z-score
// no unit, no text: just the number

compound	measurementName	assayValue
NCCCC[C@@H]1NC(=O)[C@H]2C[C@@H](C(=O)NCc3ccc(F)cc3)[C@@H](c3ccc(O)cc3)N2C1=O	composite z-score	0.149
COCCOC(=O)N1C(=O)[C@@]2(c3cc(C#Cc4ccc(OC)cc4)ccc31)[C@H](c1ccc(OCCO)cc1)N1[C@H](c3ccccc3)[C@H](c3ccccc3)OC(=O)[C@H]1[C@@H]2C(=O)N1CCCCCCC1	composite z-score	0.882
C=CCC(OC(C)=O)[C@@H]1[C@@H](N(Cc2cccc3ccccc23)C(=O)c2ccc(-c3ccccc3)cc2)c2cc(OCCCO)ccc2N1C(=O)c1ccc2ccccc2n1 (stereo partly specified)	composite z-score	-0.0271
COCCOC(=O)N1C(=O)[C@@]2(c3cc(C#CCC(C(=O)OC)C(=O)OC)ccc31)[C@H](c1ccc(OCCO)cc1)N1[C@H](c3ccccc3)[C@H](c3ccccc3)OC(=O)[C@H]1[C@@H]2C(=O)N1CCCCCCC1	composite z-score	1.03
CCCCC(O)C1C=CC2C(=O)NC(=O)C2N1Nc1ccccn1 (stereo unspecified)	composite z-score	-0.067
CO[C@H]1O[C@H](CO)[C@@H](OC(=O)Nc2ccc(C(F)(F)F)cc2)[C@H](OC(=O)Nc2ccccc2-c2ccccc2)[C@@H]1OC(=O)Nc1ccccc1-c1ccccc1	composite z-score	0.0752
CC(C)CNC(=O)[C@@H]1c2ccccc2C(=O)N(C2Cc3ccccc3C2)[C@H]1c1ccc(CO)cc1	composite z-score	-0.311
C=C(COC)C(=O)CC[C@@H](OC(=O)c1cccnc1)c1cccc(OCCO)c1	composite z-score	-0.0922

In: Could you tell me which composite z-score is on file for `COCCn1c(C(=O)N2CCCC2)cc2c1C[C@H]1CN(C(=O)c3ccccc3)[C@@](Cc3ccccc3)(C(=O)OC)[C@@H]21` ?
Out: 0.827

In: Query `COc1ccccc1CN1C(=O)c2ccccc2[C@](Cc2ccccc2I)(C(=O)NCCCN(C)C)[C@@H]1c1ccc(CO)cc1` next
Out: -0.355

In: Query CCOC(=O)C1=CCC(c2cc3ccccc3[nH]2)N(S(=O)(=O)c2ccccc2[N+](=O)[O-])C1 (stereo unspecified) next
Out: 0.0357

In: Query C[C@@H](OCc1ccccc1)C1NC(=O)[C@@]23C(=O)N[C@@H](Cc4ccccc4)C2[C@H](C)[C@@]2(C)O[C@H]2C3/C=C/C/C=C\CNC(=O)[C@H](Cc2ccccc2)NC1=O (stereo partly specified) next
Out: -0.0257

In: Query C=CCC(OC(C)=O)[C@@H]1[C@@H](N(Cc2ccc(-c3cccc(C(F)(F)F)c3)o2)C(=O)c2cccc3ccccc23)c2cc(OCCCO)ccc2N1C(=O)c1ccc2ccccc2c1 (stereo partly specified) next
Out: -0.122

In: Query `NC(=O)NCC#Cc1ccc2c(c1)[C@]1(C(=O)N2)[C@H](C(=O)Nc2nc3ccccc3s2)[C@H]2C(=O)O[C@H](c3ccccc3)[C@H](c3ccccc3)N2[C@@H]1c1ccc(OCCO)cc1` next
Out: -0.138

In: Query `C=CCNC(=O)[C@H]1[C@@H]2C(=O)O[C@@H](c3ccccc3)[C@@H](c3ccccc3)N2[C@@H](c2ccc(O)cc2)[C@]12C(=O)Nc1ccc(C#CC3=CCCCC3)cc12` next
Out: -0.17

In: Query `CC(C)C(=C=CC[C@@H](O)c1cccc(OCCO)c1)CCO` next
Out: 0.0241

In: Query `C=CCNC(=O)[C@H]1[C@@H]2C(=O)O[C@@H](c3ccccc3)[C@@H](c3ccccc3)N2[C@@H](c2ccccc2OCCO)[C@]12C(=O)N(C(=O)OCCOC)c1ccccc12` next
Out: -0.0828

In: Query `CCOC(=O)C1=C[C@@H](C(C)(C)C)N(S(=O)(=O)c2ccc(C)cc2)[C@H]1c1ccccc1Cl` next
Out: 0.0522

In: Query `COc1ccc([Si](C)(C)[C@H]2[C@H](CCO)O[C@@]3(C(=O)N(Cc4ccccc4)c4ccc(N(C=O)c5ccccc5)cc43)[C@@H]2C)cc1` next
Out: -0.0121

In: Query `CCCCC=C[C@@H](NC(=O)c1ccc(C(F)(F)F)cc1)c1ccccc1` next
Out: -0.566

In: Query `COCCOC(=O)N1C(=O)[C@@]2(c3cc(C#CC4(O)CCCCCC4)ccc31)[C@H](C(=O)N1CCc3cc(OC)c(OC)cc3C1)[C@H]1C(=O)O[C@H](c3ccccc3)[C@H](c3ccccc3)N1[C@@H]2c1ccc(O)cc1` next
Out: 1.04

Source: PubChem BioAssay
